- target: Human plasma kallikrein (h PK) (Homo sapiens, UniProt P03952)
- Sequence (P03952 391-638 limits assumed): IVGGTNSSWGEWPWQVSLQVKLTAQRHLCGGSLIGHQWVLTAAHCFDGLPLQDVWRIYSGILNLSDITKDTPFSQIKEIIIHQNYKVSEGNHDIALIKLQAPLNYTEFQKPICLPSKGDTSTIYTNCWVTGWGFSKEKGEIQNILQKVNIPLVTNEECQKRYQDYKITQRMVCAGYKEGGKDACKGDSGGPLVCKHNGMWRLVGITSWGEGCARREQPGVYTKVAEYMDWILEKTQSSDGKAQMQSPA
- Sequence (P03952 20-390 partner limits assumed): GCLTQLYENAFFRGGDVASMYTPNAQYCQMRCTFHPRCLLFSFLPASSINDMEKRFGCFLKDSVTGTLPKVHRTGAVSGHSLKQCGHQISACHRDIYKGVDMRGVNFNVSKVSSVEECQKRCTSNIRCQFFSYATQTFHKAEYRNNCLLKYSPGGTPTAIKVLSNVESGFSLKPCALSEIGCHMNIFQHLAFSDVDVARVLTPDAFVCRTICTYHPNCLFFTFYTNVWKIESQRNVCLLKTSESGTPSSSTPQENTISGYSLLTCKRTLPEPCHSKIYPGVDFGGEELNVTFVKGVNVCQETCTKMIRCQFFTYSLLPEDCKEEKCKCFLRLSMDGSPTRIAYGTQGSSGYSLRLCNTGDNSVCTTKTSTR
- protocolSummary: Inhibition of human plasma kallikrein (reference enzyme)
- runParameters: S2302 substrate
- Protocol: The inhibitory effect against the individual purified enzymes was determined in analogy to a previously disclosed method (Stürzebecher et al., J. Med. Chem., 40, 3091-3099 (1997)). The release of p-nitroaniline (p-NA, the chromogenic product of the proteolytic activity), was determined by change in absorbance at 405 nm. […] Dissociation constants were calculated as described herein.
Threshold 4 µM: Ki strictly smaller gives YES, otherwise NO.

NCc1ccc(Cl)cc1CNC(=O)[C@@H]1C[C@H](O)CN1C(=O)[C@@H](CCC(=O)N1CCOCC1)NS(=O)(=O)Cc1ccccc1 :: YES
NCc1ccc(Cl)cc1CNC(=O)[C@@H]1CCCN1C(=O)[C@@H](CC(=O)O)NS(=O)(=O)Cc1ccccc1 :: NO
NCc1ccc(Cl)cc1CNC(=O)[C@@H]1CCCN1C(=O)[C@@H](CC(=O)N1CCOCC1)NS(=O)(=O)Cc1ccccc1 :: YES
NCc1ccc(Cl)cc1CNC(=O)[C@@H]1CCCCN1C(=O)[C@@H](CC(=O)N1CCOCC1)NS(=O)(=O)Cc1ccccc1 :: NO

Quick check: does CN(C(=O)C[C@@H](NS(=O)(=O)Cc1ccccc1)C(=O)N1CCC[C@H]1C(=O)NCc1cc(Cl)ccc1CN)C1CCNCC1 have Ki under 4 µM?
NO

----------
Where a name gives a salt, the structure may show the parent alone.
Human urokinase type plasminogen activator (h u-PA) (Homo sapiens) measurements of Ki, listed per entry.

Solved cases below.
CN(CC1CCOCC1)C(=O)C[C@@H](NS(=O)(=O)Cc1ccccc1)C(=O)N1CCC[C@H]1C(=O)NCc1cc(Cl)ccc1CN [Compound 2.47, TFA] :: > 100 µM
NCc1ccc(Cl)cc1CNC(=O)[C@@H]1CCCN1C(=O)[C@@H](CC(=O)N1CCCC1)NS(=O)(=O)Cc1ccccc1 :: > 80 µM

Measured Ki for this entry NCc1ccc(Cl)cc1CNC(=O)[C@@H]1CCCN1C(=O)[C@@H](CC(=O)N1CC[C@H](N)C1)NS(=O)(=O)Cc1ccccc1 on Human urokinase type plasminogen activator (h u-PA) (Homo sapiens): > 50 µM

----------
- target: human Factor Xa (Homo sapiens)
- Construct: human Factor Xa from Enzyme Research Laboratories; purchased Enzyme Research Laboratories
- Sequence (P00742 235-488 limits assumed): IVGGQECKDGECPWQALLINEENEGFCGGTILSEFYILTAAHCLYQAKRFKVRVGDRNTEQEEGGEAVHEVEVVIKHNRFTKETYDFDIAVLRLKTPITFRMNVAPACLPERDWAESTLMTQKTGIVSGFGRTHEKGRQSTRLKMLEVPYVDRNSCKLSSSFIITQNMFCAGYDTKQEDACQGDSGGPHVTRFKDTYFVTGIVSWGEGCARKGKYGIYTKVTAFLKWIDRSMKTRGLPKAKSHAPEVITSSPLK
- Sequence (P00742 41-179 partner limits assumed): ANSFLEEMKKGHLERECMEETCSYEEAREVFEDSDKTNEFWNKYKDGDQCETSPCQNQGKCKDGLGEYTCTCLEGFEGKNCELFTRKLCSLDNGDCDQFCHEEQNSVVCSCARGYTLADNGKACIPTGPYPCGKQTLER
- protocolSummary: Inhibition constants for human factor Xa, chromogenic substrate assay
- Assay type: biochemical
- runParameters: 25° C., Pefachrome FXa substrate, average of at least three determinations; read-out: Ki h FXa
Structures can show the parent of a compound that is named as a salt.
Please provide measured pKi for the entries that follow.
Numbers only, as −log10 of the molar value.

Study these solved cases before continuing.
NCc1ccc(Cl)cc1CNC(=O)[C@@H]1C[C@H](N)CN1C(=O)[C@@H](CCC(=O)N1CCOCC1)NS(=O)(=O)Cc1ccccc1 :: 9.72
NCc1ccc(Cl)cc1CNC(=O)[C@@H]1CCN1C(=O)[C@@H](CC(=O)N1CCOCC1)NS(=O)(=O)Cc1ccccc1 :: 9.06
NCc1ccc(Cl)cc1CNC(=O)[C@@H]1C[C@H](N)CN1C(=O)[C@@H](CC(=O)N1CCCCC1)NS(=O)(=O)Cc1ccccc1 :: 10.31

Parameters: items (list). Returns: pKi for each item.
1. NCc1ccc(Cl)cc1CNC(=O)[C@@H]1CCCN1C(=O)[C@@H](CC(=O)N1CC[C@H](N)C1)NS(=O)(=O)Cc1ccccc1
2. NCc1ccc(Cl)cc1CNC(=O)[C@@H]1CCCN1C(=O)[C@@H](CC(=O)N1CC[C@H](O)C1)NS(=O)(=O)Cc1ccccc1
3. NCc1ccc(Cl)cc1CNC(=O)[C@@H]1C[C@@H](N)CN1C(=O)[C@@H](CC(=O)N1CCCCC1)NS(=O)(=O)Cc1ccccc1
4. NCc1ccc(Cl)cc1CNC(=O)[C@@H]1CCCN1C(=O)[C@H](N)CCC(=O)N1CCOCC1 [Compound 2.49, TFA]

1. 7.85
2. 8.96
3. 9.74
4. 6.87
